# Test system: large crabgrass (Digitaria sanguinalis)
# assayDetails: Pre-emergence application, herbicidal effect on large crabgrass (Table 1)
# Assay type: in vivo
# Parameters: key: 0: not damaged; 5: completely killed
# conditionSummary: 20 g./a., 20 days after application, score 0-5
# Protocol: Seeds of barnyard grass (Echinochloa crus-galli) and large crabgrass (Digitaria sanguinalis) as representatives of grassy weeds and those of radish, redroot pigweed (Amaranthus retroflexus), common purslane (Portulaca oleracea) and common lambsquarter (Chenopodium album) as representatives of broad-leaved weeds were individually sowed in flower pots of about 10 cm. in diameter. […] Herbicidal effects were evaluated by the numerals ranging from 0 (not damaged) to 5 (completely killed). […]
endpoint: Herbicidal effect, large crabgrass

{"columns": ["compound", "valueReported"],
 "data": [
  ["CCOP(=O)(SCC(=O)N1CCCCC1C)SCc1ccc(C(C)(C)C)cc1 (centres unmarked)", 5],
  ["CCCOP(=O)(SCC(=O)N1CCCCC1C)SC(C)C (centres unmarked)", 4],
  ["CCOP(=O)(SCC(=O)N1CCCCC1C)SCc1ccc(Cl)cc1 (centres unmarked)", 5],
  ["CCCOP(=O)(SCC(=O)N1CCCCC1CC)SC(C)CC (centres unmarked)", 5],
  ["CCOP(=O)(SCC(=O)N1CCCCC1C)SCc1ccc(C)cc1 (centres unmarked)", 5]
]}
